Values from ChEMBL document CHEMBL1148237

Assay: Bioavailability in rat
Type: ADME, organism-based
Conditions: in vivo
Label Fulfilled for high-side bioavailability (at or above 1%) and Not fulfilled for low-side bioavailability (below it).

Worked examples follow.
Decide: is the reported value of bioavailability for O=C(O)[C@H](Cc1ccc2[nH]c(-c3c(Cl)cccc3Cl)nc2c1)NC(=O)[C@@H]1CCN1S(=O)(=O)c1cc(Cl)cc(Cl)c1 equal to or greater than 1%?
Not fulfilled

Check this compound for bioavailability at or above 1%: O=C(O)[C@H](Cc1ccc2nc(-c3c(Cl)cccc3Cl)oc2c1)NC(=O)[C@@H]1CCN1S(=O)(=O)c1cc(Cl)cc(Cl)c1
Fulfilled

Further cases:
In plain terms: is recorded bioavailability at least 1% for O=C(N[C@@H](Cc1ccc2oc(-c3c(Cl)cccc3Cl)nc2c1)C(=O)O)c1c(Cl)cccc1Cl ?
Fulfilled

Reported bioavailability reaches at least 1% for O=C(N[C@@H](Cc1ccc2oc(-c3c(Cl)cccc3Cl)nc2c1)C(=O)O)c1c(Cl)cncc1Cl ?
Fulfilled

Say whether O=C(O)[C@H](Cc1ccc2oc(-c3c(Cl)cccc3Cl)nc2c1)NC(=O)[C@@H]1CCN1S(=O)(=O)c1cc(Cl)cc(Cl)c1 shows bioavailability of 1% or more.
Fulfilled

Check if bioavailability >= 1% (inclusive). Item: O=C(N[C@@H](Cc1ccc2[nH]c(-c3c(Cl)cccc3Cl)nc2c1)C(=O)O)c1c(Cl)cccc1Cl
Fulfilled

Does O=C(Nc1ccc(C[C@H](NC(=O)[C@@H]2CCN2S(=O)(=O)c2cc(Cl)cc(Cl)c2)C(=O)O)cc1)c1c(Cl)cccc1Cl have a reported bioavailability of at least 1%?
Not fulfilled
